Measured enrichment ratio accompanies every entry in the list below.
B1: PhoQ; a variant is named by its letters at X, in order, P23837 (parent)
chain: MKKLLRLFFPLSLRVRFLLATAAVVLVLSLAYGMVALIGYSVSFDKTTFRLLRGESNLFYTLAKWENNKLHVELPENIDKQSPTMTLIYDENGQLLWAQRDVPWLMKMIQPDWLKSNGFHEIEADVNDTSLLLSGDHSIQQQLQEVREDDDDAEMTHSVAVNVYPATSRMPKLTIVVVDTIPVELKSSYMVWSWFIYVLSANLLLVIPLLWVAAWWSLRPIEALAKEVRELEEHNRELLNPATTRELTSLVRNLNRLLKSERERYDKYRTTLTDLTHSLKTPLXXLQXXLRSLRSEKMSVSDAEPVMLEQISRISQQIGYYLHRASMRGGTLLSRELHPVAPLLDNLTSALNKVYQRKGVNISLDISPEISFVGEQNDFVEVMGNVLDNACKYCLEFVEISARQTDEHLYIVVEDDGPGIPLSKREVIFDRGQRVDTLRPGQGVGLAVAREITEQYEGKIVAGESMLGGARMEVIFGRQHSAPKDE

Variants of: B1
Assay: enrichment ratio after two sorts for PhoP signalling (ratio (wild type AVST 3.29)); higher = more functional
Conditions: with PhoP (E. coli)
The full ranking holds about 140,000 sequences; the median of “enrichment ratio after two sorts for PhoP signalling” is about 0, and the highest 2% start at about 11. This is one part of a sample in which the highest values are shown more often than they occur.

* PESS | ≤ 0.25
* ASWN | ≤ 0.25

Reported enrichment ratio, variant VRCC : ____
≤ 0.25

This collection of values is drawn from a collection of fitness landscapes (doi:10.1126/science.1257360).
